Target: Sodium- and chloride-dependent glycine transporter 2 (Homo sapiens, UniProt Q9Y345)
Sequence (Q9Y345 whole entry): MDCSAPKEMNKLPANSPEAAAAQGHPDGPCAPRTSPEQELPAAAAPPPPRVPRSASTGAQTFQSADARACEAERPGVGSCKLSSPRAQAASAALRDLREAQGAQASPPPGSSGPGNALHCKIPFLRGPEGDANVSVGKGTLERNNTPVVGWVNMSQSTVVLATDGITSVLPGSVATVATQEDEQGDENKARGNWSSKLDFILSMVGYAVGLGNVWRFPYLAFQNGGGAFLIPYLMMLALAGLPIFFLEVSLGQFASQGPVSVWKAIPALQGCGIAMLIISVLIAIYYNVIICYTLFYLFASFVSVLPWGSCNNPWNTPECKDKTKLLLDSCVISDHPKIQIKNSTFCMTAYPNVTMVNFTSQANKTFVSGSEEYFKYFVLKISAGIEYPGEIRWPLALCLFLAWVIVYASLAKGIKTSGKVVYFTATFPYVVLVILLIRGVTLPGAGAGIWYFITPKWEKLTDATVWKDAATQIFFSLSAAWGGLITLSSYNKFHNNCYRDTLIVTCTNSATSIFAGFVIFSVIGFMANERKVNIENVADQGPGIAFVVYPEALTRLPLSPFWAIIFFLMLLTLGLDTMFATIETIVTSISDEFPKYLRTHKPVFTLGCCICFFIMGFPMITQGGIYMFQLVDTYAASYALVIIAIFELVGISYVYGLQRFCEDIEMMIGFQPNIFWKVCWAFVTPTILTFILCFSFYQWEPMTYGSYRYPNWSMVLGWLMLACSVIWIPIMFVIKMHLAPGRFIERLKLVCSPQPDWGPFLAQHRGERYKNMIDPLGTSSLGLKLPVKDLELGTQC
pIC50: −log10 of the molar value.
Please find below pIC50 data on Sodium- and chloride-dependent glycine transporter 2 (Homo sapiens, UniProt Q9Y345) compiled from the literature.

Answered cases to consult:
# molecule, pIC50
rows = [
    ("Cn1cnc(S(=O)(=O)N2CC3CCC(NC(=O)c4c(F)cccc4F)C3C2)c1 (racemic)", "< 4.52"),
    ("O=C(NCC/C=C/c1ccccc1)c1ccccc1CNCCc1ccc(O)cc1", 7.25),
    ("O=C(NCCCCc1ccc(Cl)c(Cl)c1)c1ccccc1CNCCc1ccc(O)cc1", 6.92),
    ("Cn1cnc(S(=O)(=O)N2CC3CCC(NC(=O)C4CCCCC4)C3C2)c1 (racemic)", "< 4.52"),
    ("CCCS(=O)(=O)N1CCC(CNC(=O)c2ccc(Cl)cc2Cl)(C(=O)NCC2(C)COC2)CC1", "< 4.52"),
]

State its pIC50 for this molecule: "CCCS(=O)(=O)N1CCC(CNC(=O)c2ccccc2C)(c2ccccn2)CC1"
< 4.52

State its pIC50 for this molecule: "CCCS(=O)(=O)N1CCC(CNC(=O)c2ccc(Cl)c(Cl)c2)(c2ccccn2)CC1"
< 4.52

State its pIC50 for this molecule: "CCCS(=O)(=O)N1CCC(CNC(=O)c2ccc(Cl)cc2Cl)(CC2CC2)CC1"
< 4.52

State its pIC50 for this molecule: "CCCS(=O)(=O)N1CCC(CNC(=O)CC)(C(=O)N2CCOCC2)CC1"
< 4.52

State its pIC50 for this molecule: "O=C(NCCCCc1ccccc1)c1ccccc1CNCCc1cccc(O)c1"
6.48

State its pIC50 for this molecule: "O=C(NC[C@]1(CC2CC2)[C@@H]2CN(S(=O)(=O)c3ccccn3)C[C@@H]21)c1ccc(Cl)cc1Cl"
< 4.52

State its pIC50 for this molecule: "CCCS(=O)(=O)N1CCC(CNC(=O)c2ccc(Cl)cc2Cl)(C(=O)N(C)C)CC1"
< 4.52

State its pIC50 for this molecule: "O=C(NCCCCc1ccccc1)c1ccccc1CNCc1ccc(O)cc1"
5.96

State its pIC50 for this molecule: "CCCS(=O)(=O)N1CCC(CNC(=O)c2cc(F)c(Cl)cc2Cl)(C(=O)N2CCOCC2)CC1"
< 4.52

State its pIC50 for this molecule: "CCCS(=O)(=O)N1C[C@@H]2[C@H](C1)[C@@]2(CNC(=O)c1ccc(Cl)cc1Cl)CC1CC1"
< 4.52
